Reported pKi values follow for various molecules
- tested.on: adenosine A1 receptor (Rattus norvegicus)
- Sequence (P25099 whole entry): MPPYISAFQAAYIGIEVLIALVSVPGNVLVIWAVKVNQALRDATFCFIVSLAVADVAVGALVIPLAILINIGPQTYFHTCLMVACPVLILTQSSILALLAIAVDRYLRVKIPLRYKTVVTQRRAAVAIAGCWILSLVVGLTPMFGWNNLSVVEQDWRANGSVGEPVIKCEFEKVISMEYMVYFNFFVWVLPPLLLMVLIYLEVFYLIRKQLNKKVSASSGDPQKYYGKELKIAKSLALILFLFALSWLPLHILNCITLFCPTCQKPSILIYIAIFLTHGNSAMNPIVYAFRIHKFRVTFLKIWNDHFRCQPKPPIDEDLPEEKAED
Conceptually, pKi converts a concentration in mol/L into minus its log10.

CONc1nc(Cl)nc2c1ncn2[C@@H]1O[C@H](CO)[C@@H](O)[C@H]1O :: 7.68

Next:
So what pKi did `CN(C)Nc1nc(Cl)nc2c1ncn2[C@@H]1O[C@H](CO)[C@@H](O)[C@H]1O` get with adenosine A1 receptor (Rattus norvegicus)? 7.74

----------
- tested.on: UniProt P30543
- Sequence (P30543 whole entry): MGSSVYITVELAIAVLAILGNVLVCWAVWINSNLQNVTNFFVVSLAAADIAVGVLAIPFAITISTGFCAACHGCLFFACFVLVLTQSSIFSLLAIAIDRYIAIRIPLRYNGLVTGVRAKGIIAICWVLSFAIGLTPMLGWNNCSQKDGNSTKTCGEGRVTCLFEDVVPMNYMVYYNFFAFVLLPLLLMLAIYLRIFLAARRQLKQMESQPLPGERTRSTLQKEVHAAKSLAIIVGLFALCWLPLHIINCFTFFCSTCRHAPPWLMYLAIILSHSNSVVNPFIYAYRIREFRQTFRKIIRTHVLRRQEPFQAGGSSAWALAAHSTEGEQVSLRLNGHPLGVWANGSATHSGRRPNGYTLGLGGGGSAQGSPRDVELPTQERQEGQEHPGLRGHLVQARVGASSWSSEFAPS
Reported Ki values follow for various compounds
Report the value in nM with no unit label.

CONc1nc(Cl)nc2c1ncn2[C@@H]1O[C@H](CO)[C@@H](O)[C@H]1O :: 1150

Next:
So what Ki did `CN(C)Nc1nc(Cl)nc2c1ncn2[C@@H]1O[C@H](CO)[C@@H](O)[C@H]1O` get with UniProt P30543? 1660
